assay-procedure: CCTE_Shafer_MEA_dev_AB: CCTE's Alamar Blue Assay for Cytotoxicity in the Neural Network Formation Assay, Shafer Lab (AID 2284083);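 also: resazurin reduction fluorescence as viability of cultured neurons; twelve days of exposure from plating with re-dosing on DIV 5 and 9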
Inconclusive results are not listed. Calls of active or inactive are those of the source. The calls were made as follows: active = hit-call score of the fitted dose curve at least 0.9, where 1 is the maximum; inconclusive = response in the unintended direction; inactive = score below 0.9.
quantity: outcome

1. S=C1NCCN1 ... inactive
2. CC(=NC#N)N(C)Cc1ccc(Cl)nc1 ... inactive
3. CC(C)=CC1C(C(=O)OCN2C(=O)C3=C(CCCC3)C2=O)C1(C)C (stereo not drawn) ... inactive

---

Read-out: Glutathione S-Transferase (GSTA2), GSTA2 (gene 2939)
assay-procedure: LTEA_HepaRG_GSTA2: Life Technologies and Expression Analysis (LTEA) Assay for Glutathione S-Transferase (GSTA2) using HepaRG (AID 2283497)
cond: mRNA level, 48 h; actives raise or lower the signal
Calls of active or inactive are those of the source. The calls were made as follows: active = hit-call score of the fitted dose curve at least 0.9, where 1 is the maximum; inactive = score below 0.9.
Parameter call: string, one of true (1) (active), false (0) (inactive)

The examples below pair each entry with its known result.
1. CC(COc1ccc(Oc2ccccc2)cc1)Oc1ccccn1 (stereo not drawn) ... false (0)
2. CCOP(=S)(OCC)Oc1cc(C)nc(C(C)C)n1 ... false (0)

Turning now to a further record.
Input: Record request — test call for `O=[N+]([O-])c1cc(C(F)(F)F)c(Cl)c([N+](=O)[O-])c1Nc1ncc(C(F)(F)F)cc1Cl`
Output: true (1)

---

assay-procedure: CCTE_Simmons_CellTiterGLO_HEK293T: Viability Assessment in CCTE's Assays for Thyroperoxidase (TPO) Inhibition, Simmons Lab (AID 2283665)
Inconclusive results are not listed. Calls of active or inactive are those of the source. The calls were made as follows: active = hit-call score of the fitted dose curve at least 0.9, where 1 is the maximum; inconclusive = response in the unintended direction; inactive = score below 0.9.
Parameter call: string, one of active, inactive

1) CCOP(=S)(OCC)Oc1ccc2c(C)c(Cl)c(=O)oc2c1 ... inactive
2) CCCOCC(=Nc1ccc(Cl)cc1C(F)(F)F)n1ccnc1 ... active
3) O=c1ccc(=O)[nH][nH]1 ... inactive
4) COP(=O)(OC)SCn1c(=O)oc2cc(Cl)cnc21 ... inactive
5) CCC(=O)Nc1ccc(Cl)c(Cl)c1 ... inactive
6) CCOP(=S)(OCC)OC(Cl)C(Cl)(Cl)Cl (centres undefined) ... active
7) CCCSP(=O)(OCC)Oc1ccc(Br)cc1Cl (centres undefined) ... active
8) C=C(C)[C@H]1Cc2c(ccc3c2O[C@@H]2COc4cc(OC)c(OC)cc4[C@@H]2C3=O)O1 ... inactive
9) CCOC(=O)CC(SP(=O)(OC)OC)C(=O)OCC (centres undefined) ... inactive
10) CCOP(=S)(OCC)Oc1ccc([N+](=O)[O-])cc1 ... inactive

Input: Record request — test call for CCOP(=S)(Oc1cnc(C(C)(C)C)nc1)OC(C)C (centres undefined)
Output: active

---

Read-out: Tumor necrosis factor (Homo sapiens) (UniProt P01375)
Sequence (P01375 whole entry, looked up): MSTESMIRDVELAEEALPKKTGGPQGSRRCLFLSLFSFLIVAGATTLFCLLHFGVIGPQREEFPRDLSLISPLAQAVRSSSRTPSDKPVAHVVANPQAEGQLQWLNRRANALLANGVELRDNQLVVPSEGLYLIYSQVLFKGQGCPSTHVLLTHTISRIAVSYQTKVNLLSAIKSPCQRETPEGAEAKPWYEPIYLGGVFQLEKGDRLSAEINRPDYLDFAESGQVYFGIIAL
assay-procedure: BSK_LPS_TNFa: BioMAP Diversity Plus: LPS Assay for Tumour Necrosis Factor alpha (TNFa) Biomarker Activity (AID 2283085)
cond: primary human HUVEC with PBMC; actives raise or lower the signal
Active and inactive are the calls of the source. How the source made its calls: active means hit-call score of the fitted dose curve at least 0.9, where 1 is the maximum; inactive means score below 0.9.
Parameter call: string, one of Y (active), N (inactive)

1. CCCCOC(=O)[C@@H](C)Oc1ccc(Oc2ccc(C#N)cc2F)cc1 ... N
2. CCCCSP(=O)(SCCCC)SCCCC ... Y
3. COP(=O)(NC(C)=O)SC (stereo not given) ... N

Input: Record request — test call for `CN1COCN(Cc2cnc(Cl)s2)C1=N[N+](=O)[O-]`
Output: N

Input: Record request — test call for `O=c1ccc(=O)[nH][nH]1`
Output: N

Input: Record request — test call for `S=C1NCCN1`
Output: N

Input: Record request — test call for `C#CC(C)(C)NC(=O)c1cc(Cl)cc(Cl)c1`
Output: N

Input: Record request — test call for `CC[C@H](C)[C@H]1O[C@]2(C=C[C@@H]1C)C[C@@H]1C[C@@H](C/C=C(\C)[C@@H](O[C@H]3C[C@H](OC)[C@@H](O[C@H]4C[C@H](OC)[C@@H](NC)[C@H](C)O4)[C@H](C)O3)[C@@H](C)/C=C/C=C3\CO[C@@H]4[C@H](O)C(C)=C[C@@H](C(=O)O1)[C@]34O)O2`
Output: Y

Input: Record request — test call for FC(F)C(F)(F)OCC(Cn1cncn1)c1ccc(Cl)cc1Cl (stereo not given)
Output: N

Input: Record request — test call for `CNC(=O)ON=C(SC)C(=O)N(C)C`
Output: N

---

assay-procedure: Tanguay_ZF_120hpf_SWIM_legacy: (Legacy) Oregon State University Tanguay Lab 120 Hour Post-fertilization zebrafish Assay for Swim Bladder Malformation (AID 2283654);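 also: swim bladder malformation in each larva scored yes or no under brightfield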
Method: Tanguay_ZF_120hpf_legacy is a whole embryo, multiplexed endpoint assay using zebrafish larvae exposed for 120 hours post fertilization on a 96-well plate.Tanguay_ZF_120hpf_SWIM_legacy is one of one assay component(s) measured or calculated from the Tanguay_ZF_120hpf_legacy assay. […] This assay endpoint, Tanguay_ZF_120hpf_SWIM_legacy, was analyzed in the positive analysis fitting direction relative to DMSO as the negative control and baseline of activity. […]
Records with an inconclusive call do not appear. Activity calls are given as the source filed them. The calls were made as follows: active = hit-call score of the fitted dose curve at least 0.9, where 1 is the maximum; inconclusive = response in the unintended direction; inactive = score below 0.9.
Parameter call: string, one of T for active, F for inactive

The examples below pair each entry with its known result.
1. CNC(=O)Oc1cccc2c1OC(C)(C)O2 ... F
2. CN1COCN(Cc2cnc(Cl)s2)C1=N[N+](=O)[O-] ... F
3. CC(C)[C@H](C(=O)O[C@H](C#N)c1cccc(Oc2ccccc2)c1)c1ccc(Cl)cc1 ... T
4. CCCSP(=O)(OCC)Oc1ccc(Br)cc1Cl (stereo unspecified) ... F
5. CCCOCC(=Nc1ccc(Cl)cc1C(F)(F)F)n1ccnc1 ... F

Turning now to a further record.
Input: Record request — test call for `Cc1cc(C2CC2)nc(Nc2ccccc2)n1`
Output: F

---

assay-procedure: ATG_AP_1_CIS: Attagene CIS-FACTORIAL HepG2 Assay for human Activator Protein 1 (AP-1) (AID 2282931)
cond: HepG2 Attagene cis-factorial AP-1 reporter mRNA; actives raise or lower the signal
Calls of active or inactive are those of the source. The calls were made as follows: active = hit-call score of the fitted dose curve at least 0.9, where 1 is the maximum; inactive = score below 0.9.
Parameter call: string, one of active, inactive

Input: Record request — test call for `Nc1c(Cl)cc([N+](=O)[O-])cc1Cl`
Output: active

Input: Record request — test call for `CCCCSP(=O)(SCCCC)SCCCC`
Output: active

Input: Record request — test call for COP(=O)(NC(C)=O)SC (stereo not given)
Output: inactive

Input: Record request — test call for `COc1ccc(C(=CC(=O)N2CCOCC2)c2ccc(Cl)cc2)cc1OC`
Output: inactive

Input: Record request — test call for `CC[C@H](C)[C@H]1O[C@]2(C=C[C@@H]1C)C[C@@H]1C[C@@H](C/C=C(\C)[C@@H](O[C@H]3C[C@H](OC)[C@@H](O[C@H]4C[C@H](OC)[C@@H](NC)[C@H](C)O4)[C@H](C)O3)[C@@H](C)/C=C/C=C3\CO[C@@H]4[C@H](O)C(C)=C[C@@H](C(=O)O1)[C@]34O)O2`
Output: inactive

Input: Record request — test call for `CC1(C(=O)Nc2ccc(O)c(Cl)c2Cl)CCCCC1`
Output: active

Input: Record request — test call for `CCNc1nc(Cl)nc(NC(C)(C)C#N)n1`
Output: inactive

Input: Record request — test call for FC(F)C(F)(F)OCC(Cn1cncn1)c1ccc(Cl)cc1Cl (stereo not given)
Output: inactive

Input: Record request — test call for `CC(C)[C@H](C(=O)O[C@H](C#N)c1cccc(Oc2ccccc2)c1)c1ccc(Cl)cc1`
Output: inactive

Input: Record request — test call for `N#CSCSC#N`
Output: inactive

---

assay-procedure: IUF_NPC4_neurite_area_120hr: Leibniz Research Institute for Environmental Medicine (IUF) 120-hour Neuronal Morphology Assay for Neurite Area (NPC4) (AID 2284305)
Inconclusive results are not listed. Activity calls are given as the source filed them. Rule for the calls: active = hit-call score of the fitted dose curve at least 0.9, where 1 is the maximum; inconclusive = response in the unintended direction; inactive = score below 0.9.
quantity: AC50

Solved cases below.
1) COP(=O)(OC)C(O)C(Cl)(Cl)Cl (configuration not stated) ... 5.08 µM (active)
2) CCOP(=O)(NC(C)C)Oc1ccc(SC)c(C)c1 (configuration not stated) ... inactive
3) CN1COCN(Cc2cnc(Cl)s2)C1=N[N+](=O)[O-] ... inactive
4) CCOP(=S)(OCC)OC(Cl)C(Cl)(Cl)Cl (configuration not stated) ... inactive
5) CCOP(=S)(OCC)SCCSCC ... inactive
6) CON=C(C(=O)OC)c1ccccc1CON=C(C)c1cccc(C(F)(F)F)c1 ... 0.127 µM (active)

Attention now turns to another entry.
get_value(item= COP(=O)(OC)OC(Br)C(Cl)(Cl)Br (configuration not stated) , readout=AC50) returns 27 µM (active)

---

Read-out: Thrombomodulin, THBD (gene 7056)
assay-procedure: BSK_CASM3C_Thrombomodulin: BioMAP Diversity Plus: CASM3C Assay for Thrombomodulin Biomarker Activity (AID 2283051);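 also: thrombomodulin protein level measured by ELISA 24 h after dosing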
cond: primary human coronary artery smooth muscle cells; actives raise or lower the signal
The source made the active and inactive calls. How the source made its calls: active means hit-call score of the fitted dose curve at least 0.9, where 1 is the maximum; inactive means score below 0.9.
Parameter call: string, one of true for active, false for inactive

The examples below pair each entry with its known result.
1) COc1cccc(C(=O)NN(C(=O)c2cc(C)cc(C)c2)C(C)(C)C)c1C ... false
2) CC(C1CC1)C(O)(Cn1cncn1)c1ccc(Cl)cc1 (centres undefined) ... false
3) CCCSP(=O)(OCC)SCCC ... false
4) CCOP(=S)(OCC)Oc1ccc([N+](=O)[O-])cc1 ... true
5) COP(=O)(NC(C)=O)SC (centres undefined) ... false

Input: Record request — test call for `CCNc1nc(Cl)nc(NC(C)(C)C#N)n1`
Output: true

Input: Record request — test call for CC(Oc1cccc(Cl)c1)C(=O)O (centres undefined)
Output: false

Input: Record request — test call for CCCSP(=O)(OCC)Oc1ccc(Br)cc1Cl (centres undefined)
Output: true

Input: Record request — test call for `Cc1cc(C2CC2)nc(Nc2ccccc2)n1`
Output: true
